test system: flexible GA-rich RNA, 5'-U(GAAG)2GU (RNA, single strand) UGAAGGAAGGU; test: fluorescence polarization; conditions: Na+ 50 mM; 25 mM MES pH 6.1, 0.002% Triton X, 25 °C; ligand fluorescence
Reported property: Kd (µM)

Look over these answered cases.
> print(dat)
                                 cpd.smiles  reported.property  value.reported
1  CN1CCN(c2cc(F)c3cc(-c4ccc(Cl)cc4)c(=O)oc3c2)CC1                 Kd            42.8
2  Cc1cn2cc(-c3cc4ccc(N5CCN[C@@H](CO)C5)cc4oc3=O)cc(F)c2n1                 Kd            11.9
3  Cc1cn2cc(-c3cc4ccc(N5CCN(C)CC5)cc4oc3=O)nc2c(C)n1                 Kd            40.4
4  CN1CCN(c2ccc3cc(-c4ccc(Cl)cc4)c(=O)oc3c2)CC1                 Kd            37.2
5  Cc1cn2cc(-c3cc4ccc(N5CCN[C@@H](C)C5)cc4n(CCO)c3=O)cc(F)c2n1                 Kd            40.1
6  Cc1cn2cc(-c3cc4ccc(N5CCN[C@@H](C)C5)cc4n4cnnc34)cc(F)c2n1                 Kd            16.4
7  C[C@H]1CN(c2ccc3cc(-c4cc(F)c5nn(C)cc5c4)c(=O)oc3c2)CCN1                 Kd            12.6
8  COc1cn2cc(-c3cc4ccc(N5CCNCC5)cc4oc3=O)nc2cn1                 Kd            39.6

P. Cc1cn2cc(-c3cc4ccc(N5CC6(CNC6)C5)cc4oc3=O)cc(F)c2n1
Q. Cc1cn2cc(-c3cc4ccc(N5CCN[C@@H](C)C5)cc4oc3=O)cc(F)c2n1
Inquiry: Quick check, higher Kd between P and Q ? Respond using the label that marks the chosen record.
Reply text: P
